target: ACE2 (human, UniProt Q9BYF1 18-740)
Sequence (Q9BYF1 18-740 limits assumed): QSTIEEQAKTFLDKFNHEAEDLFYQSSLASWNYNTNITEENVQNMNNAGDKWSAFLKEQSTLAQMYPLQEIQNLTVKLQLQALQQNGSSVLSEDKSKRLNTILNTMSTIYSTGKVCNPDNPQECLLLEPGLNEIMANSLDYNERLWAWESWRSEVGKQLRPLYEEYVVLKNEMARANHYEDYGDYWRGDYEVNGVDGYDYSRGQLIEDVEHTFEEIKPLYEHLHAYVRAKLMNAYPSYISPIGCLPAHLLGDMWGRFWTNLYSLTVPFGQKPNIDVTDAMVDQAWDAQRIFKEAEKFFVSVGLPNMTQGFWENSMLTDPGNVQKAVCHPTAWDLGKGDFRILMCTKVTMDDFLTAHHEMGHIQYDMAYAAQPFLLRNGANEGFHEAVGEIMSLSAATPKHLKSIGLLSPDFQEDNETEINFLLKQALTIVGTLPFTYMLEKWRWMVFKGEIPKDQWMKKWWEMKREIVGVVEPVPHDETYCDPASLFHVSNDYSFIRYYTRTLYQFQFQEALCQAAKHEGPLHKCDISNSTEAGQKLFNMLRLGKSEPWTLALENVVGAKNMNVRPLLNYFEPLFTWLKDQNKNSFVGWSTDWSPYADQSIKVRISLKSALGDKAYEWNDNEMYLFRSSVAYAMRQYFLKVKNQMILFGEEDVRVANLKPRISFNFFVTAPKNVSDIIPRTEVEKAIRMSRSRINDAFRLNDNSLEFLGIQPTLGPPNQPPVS
pKd: −log10 of the molar value.
Entries and their pKd values follow.
Observed property: pKd

ACE2 variant antibody 4-74 (VHH) VHH: EVQLVESGGGLVQPGGSLRLSCAASGLTFSDDTMGWFRQAPGKEREFVAAVSWSGGNTYYADSVKGRFTISADNSKNTAYLQMNSLKPEDTAVYYCATDPPLFWGQGTLVTVSS    7.94
ACE2 variant antibody 4-89 (VHH) VHH: EVQLVESGGGLVQPGGSLRLSCAASGFAFGDNWIGWFRQAPGKEREWVASISSGGTTAYADNVKGRFTIIADNSKNTAYLQMNSLKPEDTAVYYCAHRGGWLRPWGYWGQGTLVTVSS    9.52
